// provenance: patent US10246453B2

Quick reference: IC50 of the listed items.
# Experimental target: NaV1.1 (Homo sapiens (Human))
# Test protocol: Sodium Influx Assay (Flux), NaV1.1
# Format: cell-based
# Condition details: Trex HEK293 cells, ANG2 dye; arithmetic mean
Counter-ions that a name gives are not always drawn.
Assay readout: IC50 (µM)

molecule=Cc1cc(S(=O)(=O)Nc2cscn2)c(F)cc1N(C)[C@H]1CCN(Cc2ccccc2O)C1 assay_readout=IC50 unit=µM limit_operator== meas_value=17.9
molecule=Cc1cc(S(=O)(=O)Nc2cscn2)c(F)cc1N(C)[C@H]1CCN([C@H]2C[C@@H](c3ccccc3)C2)C1 assay_readout=IC50 unit=µM limit_operator== meas_value=1.99
molecule=CN(C)c1ccc(CN2CC[C@H](N(C)c3cc(F)c(S(=O)(=O)Nc4cscn4)cc3Cl)C2)cc1 assay_readout=IC50 unit=µM limit_operator== meas_value=7.88
molecule="CN(c1cc(F)c(S(=O)(=O)Nc2cccc(F)n2)cc1Cl)[C@H]1CCN(C(C)(C)c2ccccc2)C1 [Example 260, 2,2,2-trifluoroacetate]" assay_readout=IC50 unit=µM limit_operator== meas_value=7.35
molecule=Cc1coc(CN2CC[C@H](N(C)c3cc(F)c(S(=O)(=O)Nc4cscn4)cc3C)C2)n1 assay_readout=IC50 unit=µM limit_operator=> meas_value=30
molecule="Cc1cc(S(=O)(=O)Nc2cscn2)c(F)cc1N(C)[C@H]1CCN(Cc2ncccc2OC(C)C)C1 [Example 116, formate]" assay_readout=IC50 unit=µM limit_operator== meas_value=29.3
molecule="Cc1cc(S(=O)(=O)Nc2cscn2)c(F)cc1N(C)[C@H]1CCN(Cc2ccccn2)C1 [Example 278, 2,2,2-trifluoroacetate]" assay_readout=IC50 unit=µM limit_operator=> meas_value=30
molecule=Cc1cc(S(=O)(=O)Nc2cscn2)c(F)cc1N(C)[C@H]1CCN(Cc2cocn2)C1 assay_readout=IC50 unit=µM limit_operator=> meas_value=30
molecule="CC(C)(c1ccccc1)N1CCC(Oc2ccc(S(=O)(=O)Nc3nccs3)cc2Cl)CC1 [Example 59, 2,2,2-trifluoroacetate]" assay_readout=IC50 unit=µM limit_operator== meas_value=7.44
molecule="Cc1cc(S(=O)(=O)Nc2cscn2)c(F)cc1N(C)[C@H]1CCN(CCC(C)(C)C)C1 [Example 125, formate]" assay_readout=IC50 unit=µM limit_operator== meas_value=14.7
molecule=Cc1cc(S(=O)(=O)Nc2cscn2)c(F)cc1N(C)[C@H]1CCN(Cc2ncc(Cl)s2)C1 assay_readout=IC50 unit=µM limit_operator== meas_value=9.32
molecule="Cc1cc(S(=O)(=O)Nc2ccsn2)c(F)cc1N(C)[C@H]1CCN(Cc2ccccc2)C1 [Example 277, 2,2,2-trifluoroacetate]" assay_readout=IC50 unit=µM limit_operator== meas_value=24.9
molecule="Cc1cc(S(=O)(=O)Nc2cscn2)c(F)cc1N(C)[C@H]1CCN(CC(C)(C)C)C1 [Example 124, formate]" assay_readout=IC50 unit=µM limit_operator=> meas_value=30
molecule="Cc1cc(C)cc(CN2CC[C@@H](Oc3ccc(S(=O)(=O)Nc4ncns4)cc3Cl)C2)c1 [Example 98, 2,2,2-trifluoroacetate]" assay_readout=IC50 unit=µM limit_operator== meas_value=21.9

====

# Experimental target: NaV1.5 (Homo sapiens (Human), UniProt Q14524)
# Sequence (Q14524 other isoform, or with tags, fused parts or gaps): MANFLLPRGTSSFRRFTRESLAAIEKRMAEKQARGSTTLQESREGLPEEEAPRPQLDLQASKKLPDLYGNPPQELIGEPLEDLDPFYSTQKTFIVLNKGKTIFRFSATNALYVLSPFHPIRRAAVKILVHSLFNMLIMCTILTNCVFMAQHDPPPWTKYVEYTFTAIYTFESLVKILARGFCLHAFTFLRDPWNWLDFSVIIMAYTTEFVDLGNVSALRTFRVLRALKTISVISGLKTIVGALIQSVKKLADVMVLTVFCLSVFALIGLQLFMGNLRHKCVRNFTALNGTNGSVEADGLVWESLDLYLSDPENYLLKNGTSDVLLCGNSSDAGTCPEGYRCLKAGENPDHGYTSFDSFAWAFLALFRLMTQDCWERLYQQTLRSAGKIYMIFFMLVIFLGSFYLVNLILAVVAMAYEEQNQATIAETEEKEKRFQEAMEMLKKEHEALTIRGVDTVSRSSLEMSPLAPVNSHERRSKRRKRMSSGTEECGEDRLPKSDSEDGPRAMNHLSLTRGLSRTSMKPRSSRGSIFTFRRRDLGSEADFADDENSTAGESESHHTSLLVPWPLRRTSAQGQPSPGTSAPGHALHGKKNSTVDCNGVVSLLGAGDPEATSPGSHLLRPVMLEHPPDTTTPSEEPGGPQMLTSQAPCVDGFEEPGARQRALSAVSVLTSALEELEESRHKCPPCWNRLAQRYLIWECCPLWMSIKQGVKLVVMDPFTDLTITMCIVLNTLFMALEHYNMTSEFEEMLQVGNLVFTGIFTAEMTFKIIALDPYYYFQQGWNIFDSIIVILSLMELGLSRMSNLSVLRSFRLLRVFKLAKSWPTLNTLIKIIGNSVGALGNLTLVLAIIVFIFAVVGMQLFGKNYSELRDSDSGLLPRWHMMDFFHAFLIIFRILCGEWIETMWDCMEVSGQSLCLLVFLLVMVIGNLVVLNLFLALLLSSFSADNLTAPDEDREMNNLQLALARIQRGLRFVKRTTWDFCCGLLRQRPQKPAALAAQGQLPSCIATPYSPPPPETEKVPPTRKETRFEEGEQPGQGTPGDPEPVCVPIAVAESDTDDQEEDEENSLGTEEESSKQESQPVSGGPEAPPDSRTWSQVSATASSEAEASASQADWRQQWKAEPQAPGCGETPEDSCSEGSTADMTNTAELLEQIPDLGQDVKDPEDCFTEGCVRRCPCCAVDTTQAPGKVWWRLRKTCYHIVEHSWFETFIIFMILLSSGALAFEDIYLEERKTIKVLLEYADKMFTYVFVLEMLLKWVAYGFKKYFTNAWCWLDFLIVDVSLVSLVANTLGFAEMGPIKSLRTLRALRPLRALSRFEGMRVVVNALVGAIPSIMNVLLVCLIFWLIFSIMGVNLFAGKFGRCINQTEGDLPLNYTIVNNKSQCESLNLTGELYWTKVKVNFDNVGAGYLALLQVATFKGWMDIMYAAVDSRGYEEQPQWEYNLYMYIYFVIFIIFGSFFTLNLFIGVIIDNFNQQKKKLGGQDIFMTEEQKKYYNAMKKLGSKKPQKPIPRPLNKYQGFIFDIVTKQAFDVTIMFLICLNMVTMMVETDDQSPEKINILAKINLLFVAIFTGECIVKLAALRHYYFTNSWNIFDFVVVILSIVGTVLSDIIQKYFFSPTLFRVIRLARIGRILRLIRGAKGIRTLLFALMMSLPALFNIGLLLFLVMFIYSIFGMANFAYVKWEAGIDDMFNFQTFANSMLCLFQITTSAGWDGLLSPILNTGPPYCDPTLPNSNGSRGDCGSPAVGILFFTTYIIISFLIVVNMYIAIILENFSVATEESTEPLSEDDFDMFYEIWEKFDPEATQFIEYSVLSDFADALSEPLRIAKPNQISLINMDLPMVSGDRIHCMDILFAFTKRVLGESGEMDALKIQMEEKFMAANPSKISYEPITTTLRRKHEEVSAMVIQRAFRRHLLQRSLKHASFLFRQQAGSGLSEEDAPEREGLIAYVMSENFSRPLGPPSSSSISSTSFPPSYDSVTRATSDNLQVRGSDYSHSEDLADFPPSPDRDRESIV
# Test protocol: Sodium Influx Assay (Flux), NaV1.5
# Condition details: read-out: Flux NaV1.5 IC50; Trex HEK293 cells, ANG2 dye; arithmetic mean
pIC50: −log10 of the molar value. Structures can show the parent of a compound that is named as a salt.
# if value of pIC50 reaches 5, tag Yes; if it stays below, tag No

molecule="Cc1cc(S(=O)(=O)Nc2cscn2)c(F)cc1N(C)[C@H]1CCN(Cc2nc(C3CC3)cs2)C1 [Example 134]" assigned_label=No
molecule="Cc1ccc(F)c(CN2CC[C@H](N(C)c3ccc(S(=O)(=O)Nc4ncns4)cc3Cl)C2)c1 [Example 35]" assigned_label=No
molecule="COC(=O)c1cccc(CN2CC[C@H](N(C)c3cc(F)c(S(=O)(=O)Nc4cscn4)cc3Cl)C2)c1 [Example 174]" assigned_label=No
molecule="Cc1cc(S(=O)(=O)Nc2cscn2)c(F)cc1N(C)[C@H]1CCN(CCc2ccccc2)C1 [Example 115]" assigned_label=No
molecule="CN(c1cc(F)c(S(=O)(=O)Nc2cscn2)cc1Cl)[C@H]1CCN(Cc2ccc[nH]2)C1 [Example 202]" assigned_label=No
molecule="O=S(=O)(Nc1cscn1)c1ccc(OC2CCN(C3(c4ccccc4)CC3)CC2)c(Cl)c1 [Example 303]" assigned_label=Yes
molecule="CN(c1cc(F)c(S(=O)(=O)Nc2cscn2)cc1C(F)F)[C@H]1CCN(Cc2ccccc2)C1 [Example 270, formate]" assigned_label=No
molecule="C[C@H](c1cc(Cl)ccc1F)N1CCC(Oc2ccc(S(=O)(=O)Nc3cscn3)cc2Cl)CC1 [Example 315]" assigned_label=Yes
molecule="CN(c1ccc(S(=O)(=O)Nc2cscn2)cc1Cl)[C@H]1CCN(Cc2cccc(C(F)F)c2)C1 [Example 253, formate]" assigned_label=Yes
molecule="CCN(c1cc(F)c(S(=O)(=O)Nc2cscn2)cc1C)[C@H]1CCN(Cc2ccccc2)C1 [Example 312, 2,2,2-trifluoroacetate]" assigned_label=Yes
molecule="C[C@@H](c1ccccc1)N1CCC(Oc2ccc(S(=O)(=O)Nc3ccncn3)cc2Cl)CC1 [Example 301]" assigned_label=No
